Every entry's value here was drawn from patent EP3572411A1.

Overview of recorded Ki for various compounds
- measured.target: VIM-2 (Escherichia coli, UniProt Q5U7L7)
- Construct: VIM-1; VIM-2
- measurement.description: In vitro enzyme inhibition assay (imipenem hydrolysis, UV 299 nm)
- Format: biochemical
- condition.summary: read-out: Ki (µM) VIM-2; purified enzyme, 10mM HEPES pH 7.5, Imipenem 300µM; mean Ki from IC50 by Cheng-Prusoff

N=C(N)NCC[n+]1ccn(CC(=O)Nc2c(F)cc(S(=O)(=O)Nc3scnc3C(=O)[O-])cc2F)c1 [Example 15] | 0.02 to 0.05 µM
O=C(Cn1cc[n+]2c1COCC2)Nc1ccc(S(=O)(=O)Nc2scnc2C(=O)[O-])cc1F [Example 5] | 0.05 to 0.2 µM
NCC[n+]1ccn(CC(=O)Nc2ccc(S(=O)(=O)Nc3scnc3C(=O)[O-])cc2F)c1 [Example 11] | 0.02 to 0.05 µM
C[n+]1ccn(CC(=O)Nc2c(F)cc(S(=O)(=O)Nc3scnc3C(=O)[O-])cc2F)c1 [Example 13] | 0.05 to 0.2 µM
NCCC[n+]1ccn(CC(=O)Nc2ccc(S(=O)(=O)Nc3scnc3C(=O)[O-])cc2F)c1 [Example 16] | < 0.02 µM
C[n+]1nnn(CC(=O)Nc2ccc(S(=O)(=O)Nc3scnc3C(=O)[O-])cc2F)c1N [Example 26] | 0.05 to 0.2 µM
Cc1cn(CC(=O)Nc2ccc(S(=O)(=O)Nc3scnc3C(=O)[O-])cc2F)c[n+]1C [Example 7] | 0.02 to 0.05 µM
N=C(N)NCC[n+]1ccn(CC(=O)Nc2ccc(S(=O)(=O)Nc3scnc3C(=O)[O-])cc2F)c1 [Example 12] | 0.05 to 0.2 µM

Recorded result, Cc1c[n+](C)cn1CC(=O)Nc1ccc(S(=O)(=O)Nc2scnc2C(=O)[O-])cc1F [Example 6] , Ki: 0.05 to 0.2 µM

Item: CN(C)CC[n+]1ccn(CC(=O)Nc2ccc(S(=O)(=O)Nc3scnc3C(=O)[O-])cc2F)c1 [Example 20] | Ki: 0.05 to 0.2 µM

Notebook: C[n+]1ccn(CC(=O)Nc2ccc(S(=O)(=O)Nc3scnc3C(=O)[O-])cc2F)n1 [Example 9] , Ki read as 0.05 to 0.2 µM

Form: compound = C[n+]1ccn(CC(=O)Nc2ccc(S(=O)(=O)Nc3scnc3C(=O)[O-])cc2F)c1N [Example 3] ; Ki = 0.05 to 0.2 µM

# Ki of C[n+]1cn(CC(=O)Nc2ccc(S(=O)(=O)Nc3scnc3C(=O)[O-])cc2F)cn1 [Example 22] = 0.05 to 0.2 µM

###

Recorded measurements of Ki, one per entry
- measured.target: VIM-2 (Escherichia coli, UniProt Q5U7L7)
- Construct: VIM-1; VIM-2
- measurement.description: In vitro enzyme inhibition assay (imipenem hydrolysis, UV 299 nm)
- Assay type: biochemical
- condition.summary: read-out: Ki (µM) VIM-2; purified enzyme, 10mM HEPES pH 7.5, Imipenem 300µM; mean Ki from IC50 by Cheng-Prusoff
- Method: In vitro enzyme inhibition assays: Enzyme inhibition assays are performed using purified MBL enzymes (NDM-1; VIM-1; VIM-2; IMP-1) in 10mM HEPES buffer pH 7.5 in 96-well microtiter plates. Imipenem (300µM) is used as substrates and its hydrolysis is followed at UV 299 nm during 10mn every 30 seconds using a Perkin Elmer Envision UV fluorescence plate reader. […]

Known results for compounds:
C[n+]1ccn(CC(=O)Nc2ccc(S(=O)(=O)Nc3scnc3C(=O)[O-])cc2F)c1 | 0.05 to 0.2 µM
NCC[n+]1ccn(CC(=O)Nc2c(F)cc(S(=O)(=O)Nc3scnc3C(=O)[O-])cc2F)c1 | 0.02 to 0.05 µM
Cc1n(CC(=O)Nc2ccc(S(=O)(=O)Nc3scnc3C(=O)[O-])cc2F)cc[n+]1C | 0.05 to 0.2 µM

What the record says about "CC[n+]1ccn(CC(=O)Nc2ccc(S(=O)(=O)Nc3scnc3C(=O)[O-])cc2F)n1" : Ki is 0.05 to 0.2 µM

###

Measured Ki values are reported for all entries that follow.
- measured.target: VIM-2 (Escherichia coli, UniProt Q5U7L7)
- Construct: VIM-1; VIM-2
- measurement.description: In vitro enzyme inhibition assay (imipenem hydrolysis, UV 299 nm)
- Type: biochemical
- condition.summary: read-out: Ki (µM) VIM-2; purified enzyme, 10mM HEPES pH 7.5, Imipenem 300µM; mean Ki from IC50 by Cheng-Prusoff

Below, each entry is followed by its recorded Ki result.
C[n+]1cnn(CC(=O)Nc2ccc(S(=O)(=O)Nc3scnc3C(=O)[O-])cc2F)c1 | 0.05 to 0.2 µM
N#Cc1cc(S(=O)(=O)Nc2scnc2C(=O)[O-])ccc1NC(=O)Cn1cc[n+](CCNC(=N)N)c1 | 0.02 to 0.05 µM
C[n+]1ccn(CC(=O)Nc2c(F)cc(S(=O)(=O)Nc3scnc3C(=O)[O-])cc2F)n1 | 0.05 to 0.2 µM

Sample "N#Cc1cc(S(=O)(=O)Nc2scnc2C(=O)[O-])ccc1NC(=O)Cn1cc[n+](CCN)c1" ; Ki observed: < 0.02 µM

###

- measured.target: VIM-1 (Pseudomonas aeruginosa, UniProt A0A0F7KYQ8)
- Construct: VIM-1; VIM-2; IMP-1)
- measurement.description: In vitro enzyme inhibition assay (imipenem hydrolysis, UV 299 nm)
- Format: biochemical
- condition.summary: purified enzyme, 10mM HEPES pH 7.5, Imipenem 300µM; mean Ki from IC50 by Cheng-Prusoff; read-out: Ki (µM) VIM-1
- Description: In vitro enzyme inhibition assays: Enzyme inhibition assays are performed using purified MBL enzymes (NDM-1; VIM-1; VIM-2; IMP-1) in 10mM HEPES buffer pH 7.5 in 96-well microtiter plates. Imipenem (300µM) is used as substrates and its hydrolysis is followed at UV 299 nm during 10mn every 30 seconds using a Perkin Elmer Envision UV fluorescence plate reader. […]
measurement.name: Ki

Documented Ki of "CSc1n(CC(=O)Nc2ccc(S(=O)(=O)Nc3scnc3C(=O)[O-])cc2F)cc[n+]1C" : 0.2 to 0.5 µM

###

Ki listing for selected compounds.
- measured.target: NDM-1 (Klebsiella pneumoniae)
- Construct: VIM-1; VIM-2
- Sequence (C7C422 29-270, looked up): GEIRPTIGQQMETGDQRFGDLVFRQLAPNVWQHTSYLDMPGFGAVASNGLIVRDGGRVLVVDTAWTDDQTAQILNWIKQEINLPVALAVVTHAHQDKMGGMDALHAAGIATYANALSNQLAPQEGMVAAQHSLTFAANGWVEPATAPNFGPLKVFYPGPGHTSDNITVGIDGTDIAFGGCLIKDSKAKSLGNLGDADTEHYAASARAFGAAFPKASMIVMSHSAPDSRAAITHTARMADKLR
- measurement.description: In vitro enzyme inhibition assay (imipenem hydrolysis, UV 299 nm)
- Assay type: biochemical
- condition.summary: read-out: Ki (µM) NDM-1; purified enzyme, 10mM HEPES pH 7.5, Imipenem 300µM; mean Ki from IC50 by Cheng-Prusoff

C[n+]1cccn1CC(=O)Nc1ccc(S(=O)(=O)Nc2scnc2C(=O)[O-])cc1F [Example 10] | 0.05 to 0.2 µM
NCC[n+]1ccn(CC(=O)Nc2c(F)cc(S(=O)(=O)Nc3scnc3C(=O)[O-])cc2F)c1 [Example 14] | < 0.05 µM
C[n+]1ccn(CC(=O)Nc2c(F)cc(S(=O)(=O)Nc3scnc3C(=O)[O-])cc2F)n1 [Example 23] | 0.05 to 0.2 µM
CN(C)CC[n+]1ccn(CC(=O)Nc2ccc(S(=O)(=O)Nc3scnc3C(=O)[O-])cc2F)c1 [Example 20] | < 0.05 µM

Entry CC[n+]1ccn(CC(=O)Nc2ccc(S(=O)(=O)Nc3scnc3C(=O)[O-])cc2F)n1 [Example 24] — recorded Ki = 0.05 to 0.2 µM

Entry N=C(N)NCC[n+]1ccn(CC(=O)Nc2ccc(S(=O)(=O)Nc3scnc3C(=O)[O-])cc2F)c1 [Example 12] — recorded Ki = < 0.05 µM

Looking up C[n+]1ccn(CC(=O)Nc2ccc(S(=O)(=O)Nc3scnc3C(=O)[O-])cc2F)c1 [Example 1] , I found its Ki recorded as < 0.05 µM

Ki reported for this compound C[n+]1cn(CC(=O)Nc2ccc(S(=O)(=O)Nc3scnc3C(=O)[O-])cc2F)cn1 [Example 22] : 0.05 to 0.2 µM

###

- measured.target: IMP-1 (Serratia marcescens, UniProt P52699)
- Construct: VIM-1; VIM-2
- Sequence (P52699 19-246, looked up, species assumed): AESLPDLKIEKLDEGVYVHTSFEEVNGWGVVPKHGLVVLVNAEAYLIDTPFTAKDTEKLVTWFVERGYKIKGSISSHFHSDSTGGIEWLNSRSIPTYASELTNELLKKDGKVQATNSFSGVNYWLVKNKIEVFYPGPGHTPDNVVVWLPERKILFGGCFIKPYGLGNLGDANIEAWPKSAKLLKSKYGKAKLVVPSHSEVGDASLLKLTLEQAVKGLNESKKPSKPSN
- measurement.description: In vitro enzyme inhibition assay (imipenem hydrolysis, UV 299 nm)
- Assay type: biochemical
- condition.summary: read-out: Ki (µM) IMP-1; purified enzyme, 10mM HEPES pH 7.5, Imipenem 300µM; mean Ki from IC50 by Cheng-Prusoff
measurement.name: Ki

Please review the following examples before continuing.
C[n+]1cccn1CC(=O)Nc1ccc(S(=O)(=O)Nc2scnc2C(=O)[O-])cc1F [Example 10] | 1 to 8 µM
Cc1c[n+](C)cn1CC(=O)Nc1ccc(S(=O)(=O)Nc2scnc2C(=O)[O-])cc1F [Example 6] | 1 to 8 µM
O=C(Cn1cc[n+]2c1COCC2)Nc1ccc(S(=O)(=O)Nc2scnc2C(=O)[O-])cc1F [Example 5] | 1 to 8 µM
C[n+]1ccn(CC(=O)Nc2c(F)cc(S(=O)(=O)Nc3scnc3C(=O)[O-])cc2F)c1 [Example 13] | 1 to 8 µM
NCC[n+]1ccn(CC(=O)Nc2c(F)cc(S(=O)(=O)Nc3scnc3C(=O)[O-])cc2F)c1 [Example 14] | 1 to 8 µM
C[n+]1c(N)ccn1CC(=O)Nc1ccc(S(=O)(=O)Nc2scnc2C(=O)[O-])cc1F [Example 8] | 1 to 8 µM
C[n+]1ccn(CC(=O)Nc2ccc(S(=O)(=O)Nc3scnc3C(=O)[O-])cc2F)c1 [Example 1] | 1 to 8 µM
C[n+]1ccn(CC(=O)Nc2c(F)cc(S(=O)(=O)Nc3scnc3C(=O)[O-])cc2F)n1 [Example 23] | 1 to 8 µM

Record NCCC[n+]1ccn(CC(=O)Nc2ccc(S(=O)(=O)Nc3scnc3C(=O)[O-])cc2F)c1 [Example 16] . Reported Ki: 1 to 8 µM

Input N#Cc1cc(S(=O)(=O)Nc2scnc2C(=O)[O-])ccc1NC(=O)Cn1cc[n+](CCN)c1 [Example 18] . Output Ki: 0.5 to 1 µM

Entry Cc1n(CC(=O)Nc2ccc(S(=O)(=O)Nc3scnc3C(=O)[O-])cc2F)cc[n+]1C [Example 2] , Ki reported as 1 to 8 µM

Ki reading for C[n+]1cn(CC(=O)Nc2ccc(S(=O)(=O)Nc3scnc3C(=O)[O-])cc2F)cn1 [Example 22] : 0.5 to 1 µM

Field Ki (entry N#Cc1cc(S(=O)(=O)Nc2scnc2C(=O)[O-])ccc1NC(=O)Cn1cc[n+](CCNC(=N)N)c1 [Example 19] ) reads 1 to 8 µM

For C[n+]1ccn(CC(=O)Nc2ccc(S(=O)(=O)Nc3scnc3C(=O)[O-])cc2F)n1 [Example 9] the compound record lists Ki as 1 to 8 µM

Consider C[n+]1nnn(CC(=O)Nc2ccc(S(=O)(=O)Nc3scnc3C(=O)[O-])cc2F)c1N [Example 26] . Its measured Ki is 0.5 to 1 µM

The compound listed as CN(C)CC[n+]1ccn(CC(=O)Nc2ccc(S(=O)(=O)Nc3scnc3C(=O)[O-])cc2F)c1 [Example 20] has a reported Ki of 1 to 8 µM
